# TESTED SYSTEM: ENPP1 (Homo sapiens, UniProt P22413)
# Sequence (P22413 whole entry): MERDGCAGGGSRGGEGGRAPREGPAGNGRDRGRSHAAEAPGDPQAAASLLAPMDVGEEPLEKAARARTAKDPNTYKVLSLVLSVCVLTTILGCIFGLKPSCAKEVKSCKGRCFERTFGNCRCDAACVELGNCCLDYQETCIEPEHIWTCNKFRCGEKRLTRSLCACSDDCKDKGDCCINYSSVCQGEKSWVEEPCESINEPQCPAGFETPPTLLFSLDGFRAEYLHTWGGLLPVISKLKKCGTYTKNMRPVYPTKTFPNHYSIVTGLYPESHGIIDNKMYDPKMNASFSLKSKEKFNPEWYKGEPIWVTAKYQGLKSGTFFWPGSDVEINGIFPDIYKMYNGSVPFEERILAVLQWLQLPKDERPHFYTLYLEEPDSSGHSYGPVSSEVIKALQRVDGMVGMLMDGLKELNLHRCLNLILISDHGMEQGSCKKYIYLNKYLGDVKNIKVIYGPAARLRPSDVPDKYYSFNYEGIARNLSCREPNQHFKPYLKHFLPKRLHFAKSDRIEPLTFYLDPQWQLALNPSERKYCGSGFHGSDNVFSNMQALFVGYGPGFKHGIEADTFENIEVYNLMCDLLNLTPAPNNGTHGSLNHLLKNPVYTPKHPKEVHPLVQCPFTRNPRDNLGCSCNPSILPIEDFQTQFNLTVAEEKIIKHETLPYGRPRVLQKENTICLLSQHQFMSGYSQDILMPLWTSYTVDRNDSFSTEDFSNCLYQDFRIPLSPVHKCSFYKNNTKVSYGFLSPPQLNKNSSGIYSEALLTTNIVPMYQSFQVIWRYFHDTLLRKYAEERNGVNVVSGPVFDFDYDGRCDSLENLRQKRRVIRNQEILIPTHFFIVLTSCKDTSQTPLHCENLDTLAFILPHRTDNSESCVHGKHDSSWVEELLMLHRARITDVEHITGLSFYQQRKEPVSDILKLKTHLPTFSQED
# TEST: Indirect quantitation of 2',3'-cGAMP hydrolysis (AMP-Glo Assay kit)
# Type: biochemical
# CONDITION SET: cGAMP substrate; Ki from IC50 by Cheng-Prusoff; read-out: ENPP1 Inhibition -cGAMP: Ki
pKi: −log10 of the molar value.
Catalogue of pKi readings, one per entry.

NS(=O)(=O)NCCC1CCN(c2ccnc(NC(=O)c3cccnc3)n2)CC1 = < 6.00
COc1ccc(C(=O)N2CCC(CCNS(N)(=O)=O)CC2)cc1 = < 6.00
COc1cc2nccc(N3CC4CN(S(N)(=O)=O)CC4C3)c2cc1OC (centres unmarked) = > 7.00

Query: pKi lookup needed for COc1cc2ncnc(-c3ccc4c(c3)CC(NS(N)(=O)=O)C4)c2cc1OC (centres unmarked) , thanks.
Reply: > 7.00

Query: Consider next the compound `COc1ccc2c(NCc3ccc(NS(N)(=O)=O)cc3)ccnc2c1` in the same way.
Reply: > 7.00
